- subject-of-test: Alpha-2C adrenergic receptor (Homo sapiens)
- procedure-text: modulators of alpha2C/GIRK thallium flux, primary screen, cell-based, HEK293 alpha2C/GIRK1/2 (AID 624);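 also: slope of fluorescence ratio to pre-addition baseline per second over 15 to 24 s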
- particulars: thallium flux BTC fluorescence, at 10 µM, actives lie on both sides
measured-attribute: slope
Enter the number alone.

Problem: Lab note: need slope with Alpha-2C adrenergic receptor (Homo sapiens) for entry CCOC(=O)C1=C(CS(=O)(=O)c2ccc(F)c(C)c2)NC(=O)NC1c1ccc(O)c(O)c1 (stereo unspecified) , please look it up.
Result: 0.00703

Problem: Lab note: need slope with Alpha-2C adrenergic receptor (Homo sapiens) for entry Cc1cc(C)nc(SCc2csc(N)n2)n1 , please look it up.
Result: 0.00565

Problem: Lab note: need slope with Alpha-2C adrenergic receptor (Homo sapiens) for entry O=P(O)(CN1CCCCCC1)CN1CCCCCC1 , please look it up.
Result: 0.0053

Problem: Lab note: need slope with Alpha-2C adrenergic receptor (Homo sapiens) for entry Cc1ccc(-c2nnn(CC(=O)N(Cc3ccco3)C(C(=O)NC(C)(C)C)c3cccs3)n2)o1 (stereo unspecified) , please look it up.
Result: 0.00341

Problem: Lab note: need slope with Alpha-2C adrenergic receptor (Homo sapiens) for entry CCOc1ccc(-c2nnn(CCC(=O)O)n2)cc1OC , please look it up.
Result: 0.00471

Problem: Lab note: need slope with Alpha-2C adrenergic receptor (Homo sapiens) for entry c1ccc(-c2ccccc2OCCn2cncn2)cc1 , please look it up.
Result: 0.00513

Problem: Lab note: need slope with Alpha-2C adrenergic receptor (Homo sapiens) for entry CCOc1cc(-c2nc(-c3ccc(C)nc3OCC)no2)cc(OCC)c1OCC , please look it up.
Result: 0.00309

Problem: Lab note: need slope with Alpha-2C adrenergic receptor (Homo sapiens) for entry CCOC(=O)C1=C(C)Nc2nc(SCC(=O)OC)nn2C1c1cc(F)cc(F)c1 (stereo unspecified) , please look it up.
Result: 0.00688

Problem: Lab note: need slope with Alpha-2C adrenergic receptor (Homo sapiens) for entry COc1cc(NC(=O)c2cccs2)cc(OC)c1 , please look it up.
Result: 0.00448

Problem: Lab note: need slope with Alpha-2C adrenergic receptor (Homo sapiens) for entry COc1ccc(NS(=O)(=O)c2ccc(NC(C)=O)cc2)cc1OC , please look it up.
Result: 0.00616

Problem: Lab note: need slope with Alpha-2C adrenergic receptor (Homo sapiens) for entry COc1ccc(CCn2c(C)cc(C(=O)CSc3nnnn3C)c2C)cc1 , please look it up.
Result: 0.00361

###

- procedure-text: DUSP6 inhibitors restoring Erk phosphorylation by chemical complementation, primary imaging in DUSP6-transfected HeLa (AID 609)
- particulars: HeLa MKP-3 transfected, phospho-Erk imaging KS statistic; measured here: nuclear c-Myc green intensity z-score; at 10 µM; cells stimulated with TPA for 15 min
Please enter class 1 where z-score is greater than or equal to -0.8, and class 0 where it is lower.

Problem: Say whether CC1(C)Cc2c(C#N)c(N3CCN(C(=O)c4ccco4)CC3)nc(Cc3ccccc3)c2CO1 shows z-score of -0.8 or more.
Result: class 1

Problem: Say whether Cc1ccc(CNc2oc(COc3ccccc3Cl)nc2C#N)cc1 shows z-score of -0.8 or more.
Result: class 1

Problem: Say whether CC(=O)N1CCN(C2c3cccc4cccc(c34)C2NS(=O)(=O)c2ccccc2)CC1 (stereo not drawn) shows z-score of -0.8 or more.
Result: class 0

Problem: Say whether CN1C(=O)NC(c2ccccc2)C2=C1CN(Cc1ccccc1)C2=O (stereo not drawn) shows z-score of -0.8 or more.
Result: class 0

Problem: Say whether C=C(C)Cn1c(-c2ccc(OC)cc2)nc2ccccc21 shows z-score of -0.8 or more.
Result: class 0

Problem: Say whether O=C(COc1ccc(F)cc1)OCCN1CCOCC1 shows z-score of -0.8 or more.
Result: class 1

Problem: Say whether CCCCc1cc(=O)oc2c(CN3CCCC3)c(O)ccc12 shows z-score of -0.8 or more.
Result: class 0

Problem: Say whether Cc1ccc(NC(=O)CSc2nnc(-c3ccco3)c(-c3ccco3)n2)cc1 shows z-score of -0.8 or more.
Result: class 1

Problem: Say whether N#Cc1nc(-c2cccs2)oc1NCc1ccc2c(c1)OCO2 shows z-score of -0.8 or more.
Result: class 0

Problem: Say whether CCOC(=O)c1c2c(c(=S)n(-c3ccccc3)c1N)CCC2 shows z-score of -0.8 or more.
Result: class 1

Problem: Say whether COc1cc(C2C(C(C)=O)=C(O)C(=O)N2c2ccc(Br)cn2)ccc1O (stereo not drawn) shows z-score of -0.8 or more.
Result: class 0

Problem: Say whether Cc1c(Cl)cccc1N1C(=O)C2ON(c3ccccc3)C(c3cccnc3)C2C1=O (stereo not drawn) shows z-score of -0.8 or more.
Result: class 1

Problem: Say whether CC(C)CCNc1nc2c(cc1C#N)COC(C)(C)C2 shows z-score of -0.8 or more.
Result: class 1

Problem: Say whether Cc1cc(CC(=O)O)c(C)cc1CC(=O)O shows z-score of -0.8 or more.
Result: class 1

Problem: Say whether Nc1nnnn1N=C1CCCCC1 shows z-score of -0.8 or more.
Result: class 1

Problem: Say whether CCCCCOC(=O)Cc1c(C)nc(-c2ccccc2)[nH]c1=O shows z-score of -0.8 or more.
Result: class 1

Problem: Say whether Cc1cc(NCCNC2=CC(=O)CCC2)nc2ccccc12 shows z-score of -0.8 or more.
Result: class 1

Problem: Say whether COCCNc1oc(-c2ccc(F)cc2)nc1C#N shows z-score of -0.8 or more.
Result: class 1

Problem: Say whether Cc1cccn2c(=O)c3cc(C(N)=S)c(=N)n(CCCOC(C)C)c3nc12 shows z-score of -0.8 or more.
Result: class 0

Problem: Say whether CCOc1ccc(S(=O)(=O)NC(C)(C)C)cc1-c1nc2c(C(C)(C)C)nn(C)c2c(=O)[nH]1 shows z-score of -0.8 or more.
Result: class 0

Problem: Say whether O=C1CC(c2ccccc2)n2nc(NS(=O)(=O)c3ccccc3)nc2N1 (stereo not drawn) shows z-score of -0.8 or more.
Result: class 1

Problem: Say whether COc1cccc(C2=CC(c3ccc(N(C)C)cc3)n3nnnc3N2)c1 (stereo not drawn) shows z-score of -0.8 or more.
Result: class 1

Problem: Say whether N#Cc1c(NCCCO)nc(-c2ccccc2)c2c1CCCC2 shows z-score of -0.8 or more.
Result: class 1

###

- procedure-text: inhibitors of mutant huntingtin aggregation, primary screen, imaging, exon1htt(103Q)mCFP cells, high-content imaging (AID 483);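 also: compound exposure lasted 3 days before fixation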
- particulars: exon1htt(103Q)mCFP cell line, aggregate imaging, at 2 µM; stronger effect = higher value
Kindly supply the reported inhibition of aggregation values for the records listed here.
Record the value in %, omitting the unit from your answer.

Problem: Requested field: inhibition of aggregation. Item: COc1cc(S(=O)(=O)N2CCOCC2)ccc1NC(=O)COC(=O)C12CC3CC(CC(C3)C1)C2
Result: -8.6

Problem: Requested field: inhibition of aggregation. Item: Cn1c(C(=O)Nc2ccc3c(c2)OCO3)cc2c(=O)n(C)c3ccccc3c21
Result: -6.4

Problem: Requested field: inhibition of aggregation. Item: CCN(CC)CCCN1C(=O)C(O)=C(C(C)=O)C1c1cccc(OC)c1 (stereo not given)
Result: 3.9

Problem: Requested field: inhibition of aggregation. Item: COCC(=O)N(Cc1cc2cc(OC)ccc2[nH]c1=O)c1ccccc1
Result: 1.5

Problem: Requested field: inhibition of aggregation. Item: COc1ccc(-c2nnnn2C)cc1S(=O)(=O)NCc1ccccc1
Result: 7.2

Problem: Requested field: inhibition of aggregation. Item: CCN(CC)C(=O)Cn1c(=O)n(Cc2ccccc2Cl)c2c1c(=O)n(C)c(=O)n2C
Result: 21.9

Problem: Requested field: inhibition of aggregation. Item: Cc1cccc(CCNC(=O)C2CCCN(S(=O)(=O)c3cnc[nH]3)C2)c1 (stereo not given)
Result: 21.6

Problem: Requested field: inhibition of aggregation. Item: CCCOC(=O)CSc1nc(N)c(C#N)c(CC)c1C#N
Result: 18

Problem: Requested field: inhibition of aggregation. Item: Cc1cc(C)n(-c2nc(C)nc3sc4c(c23)CCC(C)C4)n1 (stereo not given)
Result: -2

Problem: Requested field: inhibition of aggregation. Item: O=C(c1cccnc1)N1CCc2ccccc21
Result: 1.6

Problem: Requested field: inhibition of aggregation. Item: CC(C)COC(=O)NCC12C=CC(O1)C1C(=O)N(c3ccc(Cl)cc3)C(=O)C12 (stereo not given)
Result: -14.3

Problem: Requested field: inhibition of aggregation. Item: CCS(=O)(=O)N1CCC(C(=O)NC2CCCCCCC2)CC1
Result: -9.5

Problem: Requested field: inhibition of aggregation. Item: CC(C)CCn1c(NCCc2ccccc2)nc2c1c(=O)n(C)c(=O)n2C
Result: 1.3

Problem: Requested field: inhibition of aggregation. Item: Cc1ccc(-c2nc3ncccc3o2)cc1NC(=O)c1ccco1
Result: -1.4

Problem: Requested field: inhibition of aggregation. Item: COC(=O)c1ccccc1NC(=O)C1CC=CCC1C(=O)O (stereo not given)
Result: -0.6

Problem: Requested field: inhibition of aggregation. Item: O=C(Nc1cccnc1)c1ccc2c(c1)OCO2
Result: 19.5

Problem: Requested field: inhibition of aggregation. Item: CCOc1ccccc1N1Cc2cc(C)c(C)cc2C1
Result: 22.5

Problem: Requested field: inhibition of aggregation. Item: O=C(Nc1nnc(-c2ccc(Cl)cc2)o1)C1CCCCC1
Result: 18.6

Problem: Requested field: inhibition of aggregation. Item: COc1ccc(NC(=O)C(C)NS(=O)(=O)c2ccccc2)cc1Cl (stereo not given)
Result: 2.6

Problem: Requested field: inhibition of aggregation. Item: COc1ccc(NC(=O)CSc2nnc(Cc3cccn3C)n2-c2ccc(F)cc2)cc1
Result: -14.5

Problem: Requested field: inhibition of aggregation. Item: Cc1cc(C)n(-c2cc(N3CCOCC3)ncn2)n1
Result: 3

Problem: Requested field: inhibition of aggregation. Item: CCc1nnc(NC(=O)NCN2C(=O)C3C4C=CC(C4)C3C2=O)s1 (stereo not given)
Result: 3.2

Problem: Requested field: inhibition of aggregation. Item: Cn1c(=O)c2c(nc(CN3CCN(Cc4ccccc4)CC3)n2Cc2cccc(Cl)c2)n(C)c1=O
Result: 6.5

Problem: Requested field: inhibition of aggregation. Item: CC1=C(C(=O)OC(C)C)C(c2ccccn2)n2ncnc2N1 (stereo not given)
Result: -35.6

Problem: Requested field: inhibition of aggregation. Item: CCN1C(=O)c2cccc3c(NC(=O)c4ccc(S(=O)(=O)N(C)C)cc4)ccc1c23
Result: -2.1

Problem: Requested field: inhibition of aggregation. Item: Cc1cc(C)c(S(=O)(=O)Nc2cccnc2)c(C)c1
Result: -11.3

Problem: Requested field: inhibition of aggregation. Item: COc1ccc(S(=O)(=O)Cc2ccc(C(=O)NCCc3ccc(S(N)(=O)=O)cc3)o2)cc1
Result: 41.2

Problem: Requested field: inhibition of aggregation. Item: CCSc1cc(C2C(C(=O)OC)=C(C)NC3=C2C(=O)CCC3)c(C)o1 (stereo not given)
Result: 8.4

Problem: Requested field: inhibition of aggregation. Item: C=CCc1c(C)nc(SC)nc1Nc1ccc(C(=O)O)cc1
Result: 7.3

Problem: Requested field: inhibition of aggregation. Item: O=C(CCCc1cccs1)Nc1nc2c(s1)CCCC2
Result: -20.4

Problem: Requested field: inhibition of aggregation. Item: COc1ccc(OC)c2[nH]c(=O)c(CCNC(=O)C(C)C)cc12
Result: 7.9

Problem: Requested field: inhibition of aggregation. Item: CCC(Sc1nc(-c2ccccc2)c(C#N)c(=O)[nH]1)C(=O)Nc1cc(C)on1 (stereo not given)
Result: -9.8

Problem: Requested field: inhibition of aggregation. Item: CCOC(=O)C1CCCN(c2c(NCc3ccco3)c(=O)c2=O)C1 (stereo not given)
Result: -5.7

Problem: Requested field: inhibition of aggregation. Item: O=C(C1CCCN(S(=O)(=O)c2cnc[nH]2)C1)N1CCN(c2ccc(Cl)cc2)CC1 (stereo not given)
Result: -31.8

Problem: Requested field: inhibition of aggregation. Item: CC1CCN(c2oc(-c3ccccc3F)nc2C#N)CC1
Result: -3.3

Problem: Requested field: inhibition of aggregation. Item: CCNC(=O)C1CC(=O)N(Cc2ccc3c(c2)OCO3)C(=Nc2ccc(F)cc2)S1 (stereo not given)
Result: -38.8

Problem: Requested field: inhibition of aggregation. Item: COc1ccc(C2C3=C(CCCC3=O)Nc3nc(SCc4ccccc4)nn32)cc1OC (stereo not given)
Result: 9.2

Problem: Requested field: inhibition of aggregation. Item: O=C(NCC1CCCO1)C1CCCN(Cc2cnn(-c3ccccc3)c2-n2cccc2)C1 (stereo not given)
Result: 5.3

Problem: Requested field: inhibition of aggregation. Item: CC(=O)c1cccc(S(=O)(=O)N2CCC(n3nnc4cc(F)ccc43)CC2)c1
Result: 3.8

Problem: Requested field: inhibition of aggregation. Item: COCCn1c(SCc2csc(-c3ccccc3)n2)nc2ccccc21
Result: -4

Problem: Requested field: inhibition of aggregation. Item: C=CCn1c(C)cc(C(=O)CSc2nc3ccccc3o2)c1C
Result: -16.3

Problem: Requested field: inhibition of aggregation. Item: O=P(O)(CN1CCCCCC1)CN1CCCCCC1
Result: -5.3

Problem: Requested field: inhibition of aggregation. Item: COc1ccccc1-n1c(C)nnc1SCC(=O)Nc1cccc(C(C)=O)c1
Result: 3.5

Problem: Requested field: inhibition of aggregation. Item: CC1CCN(Cc2ccc(-c3nn[nH]n3)cc2)CC1
Result: 17.9

Problem: Requested field: inhibition of aggregation. Item: Cc1ccccc1-n1c(SCc2c(C)noc2C)nnc1-c1ccncc1
Result: -10.7
